- System: Peronospora parasitica
- ASSAY OVERVIEW: In vivo preventive test on Peronospora parasitica (Crucifer downy mildew) on cabbage
- CONDITION INFO: Hyaloperonospora parasitica, 120 h, 500 ppm of active ingredient, sprayed 72 hours before inoculation, evaluated 5 days after inoculation, read-out: efficacy
# pest or weed control at 500 ppm per record follows
QUANTITY NAME: pest or weed control at 500 ppm

>  <COMPOUND>
Cc1c(C(=O)NC(CC(N)=O)C(=O)O)sc(Br)c1Br (stereo not drawn)

>  <RECORDED VALUE>
90 to 100%

$$$$
>  <COMPOUND>
Cc1c(C(=O)NC(Cc2c[nH]c3ccccc23)C(=O)O)sc(Cl)c1Cl (stereo not drawn)

>  <RECORDED VALUE>
90 to 100%

$$$$
>  <COMPOUND>
CCOC(=O)[C@@H](NC(=S)c1sc(Br)c(Br)c1C)C(C)C

>  <RECORDED VALUE>
90 to 100%

$$$$
>  <COMPOUND>
COC(=O)C1(NC(=O)c2sc(Br)c(Br)c2C)CCC1

>  <RECORDED VALUE>
90 to 100%

$$$$
>  <COMPOUND>
CCOC(=O)C(NC(=O)c1sc(Cl)c(Cl)c1C)C(F)(F)F (stereo not drawn)

>  <RECORDED VALUE>
≥ 90%

$$$$
>  <COMPOUND>
CCCOC(=O)C1(NC(=O)c2cc(Br)c(Br)s2)CC1 [CMP7, reference compound]

>  <RECORDED VALUE>
0%

$$$$
>  <COMPOUND>
CCOC(=O)C(CC(N)=O)NC(=O)c1sc(Cl)c(Cl)c1C (stereo not drawn)

>  <RECORDED VALUE>
90 to 100%

$$$$
>  <COMPOUND>
CCOC(=O)C1(NC(=O)c2sc(Cl)c(Cl)c2C)CCC1

>  <RECORDED VALUE>
90 to 100%

$$$$
>  <COMPOUND>
COC(=O)C1(NC(=O)c2cc(Cl)c(Cl)s2)CC1 [CMP4, reference compound]

>  <RECORDED VALUE>
0%

$$$$
>  <COMPOUND>
O=C(NC1(C(=O)O)CC1)c1cc(Cl)c(Cl)s1 [CMP3, reference compound]

>  <RECORDED VALUE>
0%

$$$$
>  <COMPOUND>
Cc1c(C(=S)NC2(C(=O)O)CC2)sc(Cl)c1Cl

>  <RECORDED VALUE>
90 to 100%

$$$$
>  <COMPOUND>
CCOC(=O)C(C#N)NC(=O)c1sc(Br)c(Br)c1C (stereo not drawn)

>  <RECORDED VALUE>
90 to 100%

$$$$
>  <COMPOUND>
CCOC(=O)CN(C)C(=O)c1sc(Br)c(Br)c1C

>  <RECORDED VALUE>
90 to 100%

$$$$
>  <COMPOUND>
CCOC(=O)C1(NC(=O)c2sc(Br)c(Br)c2C)CCC1

>  <RECORDED VALUE>
90 to 100%

$$$$
>  <COMPOUND>
COC(=O)[C@H](CCCNC(=N)N)NC(=O)c1sc(Br)c(Br)c1C

>  <RECORDED VALUE>
80 to 89%

$$$$
>  <COMPOUND>
CCOC(=O)C(CC(N)=O)NC(=O)c1sc(Br)c(Br)c1C (stereo not drawn)

>  <RECORDED VALUE>
90 to 100%

$$$$
>  <COMPOUND>
Cc1c(C(=O)NC2(C(=O)O)CCC2)sc(Br)c1Br

>  <RECORDED VALUE>
90 to 100%

$$$$
>  <COMPOUND>
CCOC(=O)C1(NC(=O)c2cc(Cl)c(Cl)s2)CC1 [CMP6, reference compound]

>  <RECORDED VALUE>
0%

$$$$
>  <COMPOUND>
CCOC(=O)C(Cc1c[nH]c2ccccc12)NC(=O)c1sc(Cl)c(Cl)c1C (stereo not drawn)

>  <RECORDED VALUE>
90 to 100%

$$$$
>  <COMPOUND>
COC(=O)[C@H](CCCNC(=N)N)NC(=O)c1sc(Cl)c(Cl)c1C

>  <RECORDED VALUE>
90 to 100%

$$$$
>  <COMPOUND>
COC(=O)C(NC(=O)c1sc(Cl)c(Cl)c1C)C1CC1 (stereo not drawn)

>  <RECORDED VALUE>
90 to 100%

$$$$
>  <COMPOUND>
CCOC(=O)C(COC)NC(=O)c1sc(Cl)c(Cl)c1C (stereo not drawn)

>  <RECORDED VALUE>
90 to 100%

$$$$
>  <COMPOUND>
COC(=O)CC[C@H](NC(=O)c1sc(Cl)c(Cl)c1C)C(=O)OC

>  <RECORDED VALUE>
90 to 100%

$$$$
>  <COMPOUND>
COC(=O)C1(NC(=O)c2sc(Br)c(Br)c2C)CSC1

>  <RECORDED VALUE>
90 to 100%

$$$$
>  <COMPOUND>
CCSC(=O)C1(NC(=O)c2sc(Cl)c(Cl)c2C)CC1

>  <RECORDED VALUE>
90 to 100%

$$$$
>  <COMPOUND>
Cc1c(C(=O)NC(C(=O)O)C2CC2)sc(Cl)c1Cl (stereo not drawn)

>  <RECORDED VALUE>
90 to 100%

$$$$
>  <COMPOUND>
COC(=O)C(NC(=O)c1sc(Br)c(Br)c1C)C1CC1 (stereo not drawn)

>  <RECORDED VALUE>
90 to 100%

$$$$
>  <COMPOUND>
CCOC(=O)C1(NC(=O)c2sc(Br)c(Br)c2C)COC1

>  <RECORDED VALUE>
90 to 100%

$$$$
>  <COMPOUND>
C=CC1CC1(NC(=O)c1sc(Br)c(Br)c1C)C(=O)OC (stereo not drawn)

>  <RECORDED VALUE>
90 to 100%

$$$$
>  <COMPOUND>
CCOC(=O)C(NC(=O)c1sc(Cl)c(Cl)c1C)C1CC1 (stereo not drawn)

>  <RECORDED VALUE>
90 to 100%

$$$$
>  <COMPOUND>
COC(=O)C(CC(F)F)NC(=O)c1sc(Br)c(Br)c1C (stereo not drawn)

>  <RECORDED VALUE>
90 to 100%

$$$$
>  <COMPOUND>
COC(=O)C(CC(F)F)NC(=O)c1sc(Cl)c(Cl)c1C (stereo not drawn)

>  <RECORDED VALUE>
90 to 100%

$$$$
>  <COMPOUND>
CCSC(=O)C1(NC(=O)c2sc(Br)c(Br)c2C)CC1

>  <RECORDED VALUE>
90 to 100%

$$$$
